Cited source: PubChem BioAssay (NCI)

- Test system: SR leukemia
- Assay protocol: NCI tumour cell line growth inhibition, 48 h
Measured TGI by item
Property: TGI

- Compound: "COC1=C(Br)C(=O)c2nc(C)ccc2C1=O"
  Endpoint result: "6.79 µM"
- Compound: "O=C(c1ccccc1)N1C(=S)N=C(Nc2ccccc2)C1=Nc1ccccc1"
  Endpoint result: "> 100 µM"
- Compound: "COc1cc2c(c(O)c1O)-c1ccc(OC)c(=O)cc1C(NC(C)=O)CC2 (configuration not stated)"
  Endpoint result: "74.3 µM"
- Compound: "c1ccc(C2=Nn3c(CCCCCCCCc4nnc5n4N=C(c4ccccc4)CS5)nnc3SC2)cc1"
  Endpoint result: "> 100 µM"
- Compound: "Cc1c2ccncc2c(C)c2c1[nH]c1ccccc12"
  Endpoint result: "> 100 µM"
- Compound: "COc1cc(CC(C)N)ccc1O (configuration not stated)"
  Endpoint result: "> 100 µM"
- Compound: "O=C(NCc1ccc(S(=O)(=O)c2cc(F)cc(F)c2)cc1)c1ccc2nccn2c1"
  Endpoint result: "> 100 µM"
- Compound: "O=C(O)CSc1n[nH]c(Cc2ccccc2)n1"
  Endpoint result: "> 100 µM"
- Compound: "CN(C)CCSc1nccc(-c2cc3ccccc3s2)n1"
  Endpoint result: "63.4 µM"
- Compound: "COc1cc(C(=O)N2CCc3c([nH]c4c([N+](=O)[O-])c(OC)ccc34)C2C)cc(OC)c1OC (configuration not stated)"
  Endpoint result: "> 100 µM"
- Compound: "O=[N+]([O-])c1ccc(C2=Nc3ccccc3SC(c3ccccc3)C2)cc1 (configuration not stated)"
  Endpoint result: "45.2 µM"
- Compound: "C/C(CCn1[nH]c(=O)ccc1=O)=N\\OCCCc1ccccc1"
  Endpoint result: "> 100 µM"
- Compound: "CC12CC1C(c1cccc([N+](=O)[O-])c1)(c1cccc([N+](=O)[O-])c1)N=N2 (configuration not stated)"
  Endpoint result: "55.8 µM"
- Compound: "CC1C(=O)OC2CC[N+]3([O-])CC=C(COC(=O)C(C)(O)C1(C)O)C23 (configuration not stated)"
  Endpoint result: "> 100 µM"
- Compound: "CC(C)(C)C(=O)C(Cc1ccccc1)C(=O)C(C)(C)C"
  Endpoint result: "> 100 µM"
- Compound: "COc1ccc(-c2csc(NC(=O)CSc3nc(C)c(-c4ccccc4)n3Nc3ccccc3)n2)cc1"
  Endpoint result: "> 100 µM"
- Compound: "COC(C(=O)[C@@H](O)[C@@H](C)O)[C@@H]1Cc2cc3cc(O[C@H]4C[C@@H](O[C@H]5C[C@@H](O)[C@H](O)C(C)O5)[C@H](O)C(C)O4)c(C)c(O)c3c(O)c2C(=O)[C@H]1O[C@H]1C[C@@H](O[C@H]2C[C@@H](O[C@H]3C[C@@H](O)[C@H](OC)C(C)O3)[C@@H](O)C(C)O2)[C@H](O)C(C)O1 (some centres not stated)"
  Endpoint result: "> 33.3 µM"
- Compound: "C=CCn1c2c(sc1=S)C(S)N=CN2 (configuration not stated)"
  Endpoint result: "> 100 µM"
- Compound: "CCN(CC)CCNc1ccc2ncn3c4cc(OC)c(OC)c(=O)c4c(O)c1c23"
  Endpoint result: "16.2 µM"
- Compound: "O=C1CCc2ccc3c(c21)CC1(Cc2ccccc2C1)C3"
  Endpoint result: "78.8 µM"
- Compound: "CCCCCCCCCCCCOC1C(C(CC(=O)NCCN2CCCC2)NS(=O)(=O)c2cc(Cl)cc(Cl)c2)OC2OC(C)(C)OC21 (configuration not stated)"
  Endpoint result: "3.83 µM"
- Compound: "CC/C=C/C/C=C/C/C=C/C/C=C/C/C=C/C/C=C/CCC(=O)Nc1ccn([C@@H]2O[C@H](CO)[C@@H](O)C2(F)F)c(=O)n1"
  Endpoint result: "8.3 µM"
- Compound: "CC1=C[C@@H](C)C[C@]2(C)CC[C@H](O2)[C@]23CC[C@](C(=O)O)(C[C@H](O2)[C@@H]2O[C@@](C)(CC2=O)[C@@H](O)[C@H]2CC[C@@]4(CCC[C@@H](O4)[C@H](C)C(=O)O[C@H]4C[C@H]([C@]5(O)OCC[C@H](C)[C@@H]5O)O[C@H]4C=C1)O2)O3"
  Endpoint result: "> 10 µM"
- Compound: "COC(=O)[C@H](C)NC(=O)[C@H](CSC)N1C(=O)N[C@@H](C(C)C)C1=O"
  Endpoint result: "> 100 µM"
- Compound: "O=C1CCCc2cc3c(cc21)CC1(C3)Cc2ccc3c(c2C1)C(=O)CCC3 (configuration not stated)"
  Endpoint result: "40.3 µM"
- Compound: "CC(=O)OCCOCNC(=S)N/N=C/c1ccc(Br)s1"
  Endpoint result: "> 100 µM"
- Compound: "CC(C)C1=C2CCC3(C)C(CCC4C5C6OCC5(CCC6(C)C)CCC43C)C2(C)CC1 (configuration not stated)"
  Endpoint result: "30.6 µM"
- Compound: "Nc1nc(Nc2ccccc2)sc1C(=O)c1c[nH]c2ccccc12"
  Endpoint result: "5.12 µM"
- Compound: "Cc1ccc(Nc2nnc(-c3ccc4c(c3)OCO4)o2)c(C)c1"
  Endpoint result: "> 100 µM"
- Compound: "COC(=O)c1cc2c(cc1CC(Cc1ccc3c(c1)CCC3)C(=O)OC)CCC2 (configuration not stated)"
  Endpoint result: "57.4 µM"
- Compound: "CC1C(c2ccc3c(c2)OCO3)c2cc3c(cc2OC1N1CCOCC1)OCO3 (configuration not stated)"
  Endpoint result: "> 80.2 µM"
- Compound: "Oc1ccc(Br)cc1C=Nc1ccc(N=Cc2cc(Br)ccc2O)cc1"
  Endpoint result: "> 100 µM"
- Compound: "C[C@]12CC[C@@H]3c4ccc(O)c([N+](=O)[O-])c4CC[C@H]3[C@@H]1CC[C@@H]2NS(=O)(=O)c1cccc(Br)c1"
  Endpoint result: "9.41 µM"
- Compound: "Clc1ccc(N=CNc2ccc(-c3nc4ccccc4o3)cc2)cc1"
  Endpoint result: "> 100 µM"
- Compound: "COc1cc(CNc2nc3cc(C(F)(F)F)ccc3nc2-c2ccccc2)cc(OC)c1OC"
  Endpoint result: "> 100 µM"
- Compound: "COC(=O)C1(Cc2ccc3c(c2)CCC3)Cc2ccccc2C1=O (configuration not stated)"
  Endpoint result: "> 100 µM"
- Compound: "Cc1ncc([N+](=O)[O-])n1CCNS(=O)(=O)CCCn1ncnc1[N+](=O)[O-]"
  Endpoint result: "> 100 µM"
